Reference for the values: the kinase profiling compilation of Christmann-Franck et al. (2016)

- EXPERIMENTAL_TARGET: MYLK3 (human) (UniProt Q32MK0)
- Sequence (Q32MK0 whole entry, looked up): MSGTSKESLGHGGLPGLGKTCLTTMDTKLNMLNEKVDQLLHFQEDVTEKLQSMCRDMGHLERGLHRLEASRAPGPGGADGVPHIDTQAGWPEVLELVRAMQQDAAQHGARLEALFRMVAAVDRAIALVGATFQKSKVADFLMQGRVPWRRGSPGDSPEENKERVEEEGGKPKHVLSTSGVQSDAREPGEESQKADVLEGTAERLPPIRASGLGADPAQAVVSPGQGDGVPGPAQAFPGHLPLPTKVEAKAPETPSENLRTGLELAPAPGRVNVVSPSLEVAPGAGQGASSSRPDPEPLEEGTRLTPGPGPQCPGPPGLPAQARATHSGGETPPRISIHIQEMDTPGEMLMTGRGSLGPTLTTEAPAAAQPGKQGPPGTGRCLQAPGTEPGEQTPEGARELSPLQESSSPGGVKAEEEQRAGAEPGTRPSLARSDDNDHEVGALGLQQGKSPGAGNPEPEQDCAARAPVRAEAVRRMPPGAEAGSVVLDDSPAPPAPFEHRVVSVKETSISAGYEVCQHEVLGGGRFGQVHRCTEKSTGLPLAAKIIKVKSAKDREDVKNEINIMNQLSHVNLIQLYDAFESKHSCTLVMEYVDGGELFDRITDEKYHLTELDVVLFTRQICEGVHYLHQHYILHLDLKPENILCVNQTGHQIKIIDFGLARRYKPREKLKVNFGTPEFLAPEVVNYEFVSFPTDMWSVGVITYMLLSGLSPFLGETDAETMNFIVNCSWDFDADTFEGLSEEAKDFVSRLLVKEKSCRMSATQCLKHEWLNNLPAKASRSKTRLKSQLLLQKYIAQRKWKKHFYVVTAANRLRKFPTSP
- METHOD_NOTES: KINOMEscan competition binding
- CONDITION_DESCRIPTION: compound 10.0 µM

| COMPOUND | kinase still bound, per cent of control / % |
| --- | --- |
| CCC(=O)N1CCN(c2ccc(-n3c(=O)ccc4cnc5ccc(-c6cnc7ccccc7c6)cc5c43)cc2C(F)(F)F)CC1 | 94 |
| Cc1ccc(C(=O)Nc2cccc(C(F)(F)F)c2)cc1Nc1cncc(C(N)=O)c1 | 100 |
| CCOc1cc2ncc(C#N)c(Nc3ccc(OCc4ccccn4)c(Cl)c3)c2cc1NC(=O)/C=C/CN(C)C | 86 |
| O=C(O)c1ccc(Nc2ncc3c(n2)-c2ccc(Cl)cc2C(c2c(F)cccc2F)=NC3)cc1 | 100 |
| Cn1c(=O)n(-c2ccc(C(C)(C)C#N)cc2)c2c3cc(-c4cnc5ccccc5c4)ccc3ncc21 | 100 |
| Cc1ccc(NC(=O)c2cccc(C(C)(C)C#N)c2)cc1Nc1ccc2ncn(C)c(=O)c2c1 | 100 |
| C=CC(=O)Nc1cccc(Oc2nc(Nc3ccc(N4CCN(C)CC4)cc3OC)ncc2Cl)c1 | 100 |
| COc1cc(C(=O)NC2CCN(C)CC2)ccc1Nc1ncc2c(n1)N(C1CCCC1)CCC(=O)N2C(C)C | 100 |
| C[C@@H](Oc1cc(-n2cnc3ccc(CN4CCN(C)CC4)cc32)sc1C(N)=O)c1ccccc1C(F)(F)F | 100 |
| Cc1cc([C@@H](C)Nc2ccccc2C(=O)O)c2nc(N3CCOCC3)cc(=O)n2c1 | 100 |
| Nc1ccc(-c2ccc3ncc4ccc(=O)n(-c5cccc(C(F)(F)F)c5)c4c3c2)cn1 | 100 |
| N#Cc1c(NC(=O)c2cccc3ccccc23)sc2c1CCCC2 | 100 |
| CN(C)C/C=C/C(=O)Nc1cccc(Nc2ncc3c(n2)N(C)c2ccccc2C(=O)N3C)c1 | 100 |
| O=C(NC1CC1)c1cccc(-c2ccc3c(NC(=O)C4CC4)n[nH]c3c2)c1 | 46 |
| OCCCNc1cc(-c2ccnc(Nc3cccc(Cl)c3)n2)ccn1 | 100 |
| C=CC(=O)Nc1cc(NC(=O)c2ccc(C)c(NC(=O)c3ccno3)c2)cc(C(F)(F)F)c1 | 91 |
| CCN1CCN(Cc2ccc(Nc3ncc4c(n3)N(C)c3ccccc3C(=O)N4C)cc2C(F)(F)F)CC1 | 100 |
| C=CC(=O)Nc1cccc(Nc2nc(N[C@H]3CC[C@H](N(C)C)CC3)nc3c2ncn3C(C)C)c1 | 100 |
| COc1cc(C(=O)NC2CCN(C)CC2)ccc1Nc1ncc2c(n1)N(C1CCCC1)C(C)CC(=O)N2C (stereo unspecified) | 100 |
| COc1cc(N2CCN(C)CC2)ccc1Nc1nc(N)c(C(=O)c2c(Cl)cccc2Cl)s1 | 100 |
| O=C1Nc2ccc(I)cc2/C1=C/c1cc(Br)c(O)c(Br)c1 | 10 |

* * *

Quick list: kinase still bound, per cent of control per entry.
- EXPERIMENTAL_TARGET: CLK4 (human)
- METHOD_NOTES: KINOMEscan competition binding
- CONDITION_DESCRIPTION: compound 10.0 µM
MEASURE_NAME: kinase still bound, per cent of control (%)

| SMILES_ENTRY | MEASURE_NAME | ENDPOINT_RESULT |
| --- | --- | --- |
| COc1cc(N2CCN(C)CC2)ccc1Nc1nc(N)c(C(=O)c2c(Cl)cccc2Cl)s1 | kinase still bound, per cent of control | 50 |
| O=C(NOC[C@H](O)CO)c1ccc(F)c(F)c1Nc1ccc(I)cc1F | kinase still bound, per cent of control | 89 |
| Cc1ccc(C(=O)Nc2cccc(C(F)(F)F)c2)cc1Nc1cncc(C(N)=O)c1 | kinase still bound, per cent of control | 100 |
| O=C(NC1CC1)c1cccc(-c2ccc3c(NC(=O)C4CC4)n[nH]c3c2)c1 | kinase still bound, per cent of control | 100 |
| CC[C@@H]1C(=O)N(C)c2cnc(Nc3ccc(C(=O)NC4CCN(C)CC4)cc3OC)nc2N1C1CCCC1 | kinase still bound, per cent of control | 100 |
| Cc1cc([C@@H](C)Nc2ccccc2C(=O)O)c2nc(N3CCOCC3)cc(=O)n2c1 | kinase still bound, per cent of control | 68 |
| O=C1Nc2ccc(I)cc2/C1=C/c1cc(Br)c(O)c(Br)c1 | kinase still bound, per cent of control | 36 |

* * *

kinase still bound, per cent of control: recorded values
- EXPERIMENTAL_TARGET: CDKL5 (human) (UniProt O76039)
- Sequence (O76039 whole entry, looked up): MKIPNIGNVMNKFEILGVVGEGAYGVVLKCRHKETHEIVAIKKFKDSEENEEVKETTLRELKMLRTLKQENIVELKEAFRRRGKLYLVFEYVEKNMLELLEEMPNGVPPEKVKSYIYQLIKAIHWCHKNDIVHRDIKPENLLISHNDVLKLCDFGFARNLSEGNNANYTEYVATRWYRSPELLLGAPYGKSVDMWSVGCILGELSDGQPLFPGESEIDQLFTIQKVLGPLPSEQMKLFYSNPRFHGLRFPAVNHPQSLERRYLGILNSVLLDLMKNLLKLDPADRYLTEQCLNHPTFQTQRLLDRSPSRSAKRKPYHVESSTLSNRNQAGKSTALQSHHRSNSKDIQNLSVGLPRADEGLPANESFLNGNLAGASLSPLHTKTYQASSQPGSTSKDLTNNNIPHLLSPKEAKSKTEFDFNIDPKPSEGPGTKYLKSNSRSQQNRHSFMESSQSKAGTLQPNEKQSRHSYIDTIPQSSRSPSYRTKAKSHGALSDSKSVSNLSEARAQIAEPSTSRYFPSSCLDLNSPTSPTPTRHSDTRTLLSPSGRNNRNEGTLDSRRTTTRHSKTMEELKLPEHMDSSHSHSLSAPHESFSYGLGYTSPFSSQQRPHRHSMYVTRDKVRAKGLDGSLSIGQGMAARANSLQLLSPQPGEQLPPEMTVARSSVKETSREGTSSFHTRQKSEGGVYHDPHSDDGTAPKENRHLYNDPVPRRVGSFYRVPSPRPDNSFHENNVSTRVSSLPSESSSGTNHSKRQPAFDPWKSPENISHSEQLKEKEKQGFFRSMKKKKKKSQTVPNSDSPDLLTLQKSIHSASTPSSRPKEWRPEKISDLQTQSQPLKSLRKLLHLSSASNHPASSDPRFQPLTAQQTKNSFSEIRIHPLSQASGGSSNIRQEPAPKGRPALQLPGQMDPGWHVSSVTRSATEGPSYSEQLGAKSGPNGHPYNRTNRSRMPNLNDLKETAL
- METHOD_NOTES: KINOMEscan competition binding
- CONDITION_DESCRIPTION: compound 10.0 µM
MEASURE_NAME: kinase still bound, per cent of control (%)

| SMILES_ENTRY | ENDPOINT_RESULT |
| --- | --- |
| Cc1ccc2nc(NCCN)c3ncc(C)n3c2c1 | 46 |
| CCCS(=O)(=O)Nc1ccc(F)c(C(=O)c2c[nH]c3ncc(-c4ccc(Cl)cc4)cc23)c1F | 100 |
| Nc1ccc(-c2ccc3ncc4ccc(=O)n(-c5cccc(C(F)(F)F)c5)c4c3c2)cn1 | 100 |
| O=C(NOC[C@H](O)CO)c1ccc(F)c(F)c1Nc1ccc(I)cc1F | 67 |
| Cc1ccc(NC(=O)c2cccc(C(C)(C)C#N)c2)cc1Nc1ccc2ncn(C)c(=O)c2c1 | 93 |
| C=CC(=O)Nc1cc(NC(=O)c2ccc(C)c(NC(=O)c3ccno3)c2)cc(C(F)(F)F)c1 | 100 |
| C[C@@H](Oc1cc(-n2cnc3ccc(CN4CCN(C)CC4)cc32)sc1C(N)=O)c1ccccc1C(F)(F)F | 31 |
| N#Cc1c(NC(=O)c2cccc3ccccc23)sc2c1CCCC2 | 70 |
| Cc1cc([C@@H](C)Nc2ccccc2C(=O)O)c2nc(N3CCOCC3)cc(=O)n2c1 | 74 |
| O=C(O)c1ccc(Nc2ncc3c(n2)-c2ccc(Cl)cc2C(c2c(F)cccc2F)=NC3)cc1 | 100 |

* * *

- EXPERIMENTAL_TARGET: PAK2 (human) (UniProt Q13177)
- Sequence (Q13177 whole entry, looked up): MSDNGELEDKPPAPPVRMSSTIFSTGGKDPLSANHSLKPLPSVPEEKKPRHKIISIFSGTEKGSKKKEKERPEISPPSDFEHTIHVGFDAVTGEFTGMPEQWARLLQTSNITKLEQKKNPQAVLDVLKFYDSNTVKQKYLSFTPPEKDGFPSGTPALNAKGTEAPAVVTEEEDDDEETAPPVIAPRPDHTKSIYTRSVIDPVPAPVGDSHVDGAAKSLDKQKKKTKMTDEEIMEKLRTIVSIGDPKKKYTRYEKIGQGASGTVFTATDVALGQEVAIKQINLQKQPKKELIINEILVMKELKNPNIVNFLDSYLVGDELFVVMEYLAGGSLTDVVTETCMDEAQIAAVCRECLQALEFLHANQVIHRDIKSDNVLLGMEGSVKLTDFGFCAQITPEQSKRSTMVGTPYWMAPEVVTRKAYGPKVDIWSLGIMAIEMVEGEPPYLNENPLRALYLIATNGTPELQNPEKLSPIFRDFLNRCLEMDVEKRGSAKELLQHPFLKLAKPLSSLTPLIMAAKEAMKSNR
- METHOD_NOTES: KINOMEscan competition binding
- CONDITION_DESCRIPTION: compound 10.0 µM
Field: label. Allowed values: criterion met (kinase still bound, per cent of control < 90%) or criterion not met (kinase still bound, per cent of control >= 90%).

| MOLECULE | ASSIGNED_LABEL |
| --- | --- |
| Cc1ccc(NC(=O)c2cccc(C(C)(C)C#N)c2)cc1Nc1ccc2ncn(C)c(=O)c2c1 | criterion not met |
| O=C(NC1CC1)c1cccc(-c2ccc3c(NC(=O)C4CC4)n[nH]c3c2)c1 | criterion met |
| Nc1ccc(-c2ccc3ncc4ccc(=O)n(-c5cccc(C(F)(F)F)c5)c4c3c2)cn1 | criterion not met |
| Cn1c(=O)n(-c2ccc(C(C)(C)C#N)cc2)c2c3cc(-c4cnc5ccccc5c4)ccc3ncc21 | criterion not met |
| Cc1cc([C@@H](C)Nc2ccccc2C(=O)O)c2nc(N3CCOCC3)cc(=O)n2c1 | criterion not met |
| C[C@@H](Oc1cc(-n2cnc3ccc(CN4CCN(C)CC4)cc32)sc1C(N)=O)c1ccccc1C(F)(F)F | criterion met |
| CN(C)C/C=C/C(=O)Nc1cccc(Nc2ncc3c(n2)N(C)c2ccccc2C(=O)N3C)c1 | criterion met |
| Cc1ccc(C(=O)Nc2cccc(C(F)(F)F)c2)cc1Nc1cncc(C(N)=O)c1 | criterion not met |
| CCN1CCN(Cc2ccc(Nc3ncc4c(n3)N(C)c3ccccc3C(=O)N4C)cc2C(F)(F)F)CC1 | criterion met |
| COc1cc(C(=O)NC2CCN(C)CC2)ccc1Nc1ncc2c(n1)N(C1CCCC1)CCC(=O)N2C(C)C | criterion not met |
| O=C1Nc2ccc(I)cc2/C1=C/c1cc(Br)c(O)c(Br)c1 | criterion met |
| CC[C@@H]1C(=O)N(C)c2cnc(Nc3ccc(C(=O)NC4CCN(C)CC4)cc3OC)nc2N1C1CCCC1 | criterion not met |
| COc1cc(N2CCN(C)CC2)ccc1Nc1nc(N)c(C(=O)c2c(Cl)cccc2Cl)s1 | criterion not met |
| C=CC(=O)Nc1cccc(Nc2nc(N[C@H]3CC[C@H](N(C)C)CC3)nc3c2ncn3C(C)C)c1 | criterion met |
| CCC(=O)N1CCN(c2ccc(-n3c(=O)ccc4cnc5ccc(-c6cnc7ccccc7c6)cc5c43)cc2C(F)(F)F)CC1 | criterion not met |
| C=CC(=O)Nc1cc(NC(=O)c2ccc(C)c(NC(=O)c3ccno3)c2)cc(C(F)(F)F)c1 | criterion met |
| C=CC(=O)Nc1cccc(Oc2nc(Nc3ccc(N4CCN(C)CC4)cc3OC)ncc2Cl)c1 | criterion not met |
| COc1cc(C(=O)NC2CCN(C)CC2)ccc1Nc1ncc2c(n1)N(C1CCCC1)C(C)CC(=O)N2C (stereo not given) | criterion not met |
| Cc1ccc2nc(NCCN)c3ncc(C)n3c2c1 | criterion not met |
| O=C(NOC[C@H](O)CO)c1ccc(F)c(F)c1Nc1ccc(I)cc1F | criterion not met |
| N#Cc1c(NC(=O)c2cccc3ccccc23)sc2c1CCCC2 | criterion not met |
| O=C(O)c1ccc(Nc2ncc3c(n2)-c2ccc(Cl)cc2C(c2c(F)cccc2F)=NC3)cc1 | criterion met |
| CCOc1cc2ncc(C#N)c(Nc3ccc(OCc4ccccn4)c(Cl)c3)c2cc1NC(=O)/C=C/CN(C)C | criterion met |
| CCCS(=O)(=O)Nc1ccc(F)c(C(=O)c2c[nH]c3ncc(-c4ccc(Cl)cc4)cc23)c1F | criterion met |
| OCCCNc1cc(-c2ccnc(Nc3cccc(Cl)c3)n2)ccn1 | criterion not met |
